From: PubChem BioAssay AID1745856

- Assay info: Primary qHTS Assay for Foot and Mouth Disease Virus Antivirals against NCGC Sytravon and CBC Compound Libraries: Firefly Luciferase Signal; note: nearly all actives have a fitted effect of over 60% in size
- Assay setup: FMDV antiviral cell assay; series mostly up to 57.5 µM
Among all 120,000 compounds or so, about 270 (0.23%) were called active. About 5% were inconclusive and are not listed. This excerpt belongs to a sample that is enriched for actives.
Assay endpoint: outcome

Below are worked cases with known answers.
Reported outcome, molecule CCC1CN(S(=O)(=O)c2cc(-c3cc(C)no3)ccc2C)c2cc(C)ccc2O1 (stereo unspecified) : ____
inactive

Reported outcome, molecule CC(Sc1nnc(CCC(N)=O)n1C1CC1)C(=O)c1c[nH]c2ccccc12 (stereo unspecified) : ____
inactive

Reported outcome, molecule CCn1nc(C(=O)Nc2nnc(Cc3ccccc3)s2)c2ccccc2c1=O : ____
inactive

Reported outcome, molecule COc1ccc(-c2csc(Nc3cccc(C)n3)n2)cc1OC : ____
inactive

Reported outcome, molecule CCN(CC)c1ccc(NS(=O)(=O)c2cc(-c3cc(C)no3)ccc2C)c(C)c1 : ____
inactive

Continuing:
Reported outcome, molecule Cc1cccc(C)c1Nc1nc(-c2ccccc2)cs1 : ____
inactive

Reported outcome, molecule Cc1c(Cl)cccc1N(CC(=O)Nc1c(C)n(C)n(-c2ccccc2)c1=O)S(C)(=O)=O : ____
inactive

Reported outcome, molecule COc1ccc(C(=O)Nc2c(NCC3CCCCC3)c3ccccc3oc2=O)cc1OC : ____
inactive

----------
- Assay info: Primary qHTS Assay for Foot and Mouth Disease Virus Antivirals against NCGC Sytravon and CBC Compound Libraries: Firefly Luciferase Signal; note: nearly all actives have a fitted effect of over 60% in size
- Assay setup: FMDV antiviral cell assay; series mostly up to 57.5 µM
Among all 120,000 compounds or so, about 270 (0.23%) were called active. Roughly 5% stayed inconclusive and do not appear here. Calls follow the shape of the full dose curve. This is one part of a sample in which actives are shown more often than they occur.
Mark one answer only. Choices: active, inactive

For this molecule, state the assay outcome: Cc1noc(C)c1CS(=O)(=O)c1ccc(Cl)cc1
inactive

For this molecule, state the assay outcome: CCS(=O)(=O)N1CCc2cc(C(=O)CSc3ccc(Cl)cc3)ccc21
inactive

For this molecule, state the assay outcome: COC(=O)CCCn1c(C)cc(C(=O)COC(=O)c2nccnc2N)c1C
inactive

For this molecule, state the assay outcome: O=C(O)c1c(F)c(F)c(F)c(F)c1-c1ccccc1
inactive

For this molecule, state the assay outcome: Cc1cc(/C=C(/C#N)c2nc3ccccc3n2C)cc(C)c1O
inactive

For this molecule, state the assay outcome: CCOC(=O)c1cc(NCc2c(Cl)cccc2Cl)ccc1N1CCOCC1
inactive

For this molecule, state the assay outcome: CC(=O)N1CCN(C(=O)CCC(=O)N2CCC(c3noc4cc(F)ccc34)CC2)CC1
inactive

For this molecule, state the assay outcome: O=C(Nc1ncn(Cc2ccc(Cl)cc2)n1)c1ccn(COc2ccc(F)cc2F)n1
inactive

For this molecule, state the assay outcome: CC(C)C(C#CC(O)(c1ccccc1)c1ccccc1)N(C)C (stereo not given)
inactive

For this molecule, state the assay outcome: CCOC(=O)c1cc(NC(=O)c2ccc(-c3ccccc3)cc2)ccc1N1CCOCC1
inactive

For this molecule, state the assay outcome: Cc1nc(NC(=O)C(C)Sc2nnc(-c3ccccc3F)n2CC(C)C)sc1C (stereo not given)
inactive

For this molecule, state the assay outcome: N#Cc1ccccc1N=Cc1ccc2ccccc2c1
inactive

For this molecule, state the assay outcome: CCC1CCCCN1S(=O)(=O)c1ccc(NC(=O)c2cc(-c3ccc(OC)cc3)on2)cc1 (stereo not given)
inactive

For this molecule, state the assay outcome: Cc1ccc2c(Cl)cc(Cl)c(OCC(=O)N3CCCCCC3)c2n1
inactive

For this molecule, state the assay outcome: CCCc1cc(=O)oc2c(C)c(OCC(=O)OC(C)C)ccc12
inactive

For this molecule, state the assay outcome: CCOc1cc(-c2nnc(SCC(=O)NC3CCCC3)nc2-c2ccc(OC)c(OCC)c2)ccc1OC
inactive

For this molecule, state the assay outcome: COC(=O)c1ccc(CNC(=O)CCCNC(=O)C(C)(C)C)cc1
inactive

For this molecule, state the assay outcome: Cc1ccc(-c2csc3c2NC(=O)CC3c2ccc(C)cc2)cc1 (stereo not given)
inactive

For this molecule, state the assay outcome: Cc1cccc(N(C)C(=O)Cn2nc(Cc3cccnc3)c3ccccc3c2=O)c1
inactive

For this molecule, state the assay outcome: Clc1ccc(CNc2n[nH]c(-c3ccco3)n2)c(Cl)c1
inactive

For this molecule, state the assay outcome: COc1c(C)cccc1C(=O)Nc1cccc2ncccc12
inactive

For this molecule, state the assay outcome: CCOc1cc(-c2nnc(SCC(=O)NC3CCCCC3)nc2-c2ccc(OC)c(OCC)c2)ccc1OC
inactive

For this molecule, state the assay outcome: Cc1nn(CC(=O)NC(C)(C)C)c(C)c1S(=O)(=O)N1CCCC(C(=O)N2CCOCC2)C1 (stereo not given)
inactive

For this molecule, state the assay outcome: CCOc1ccc(OCC(=O)NCCc2c[nH]c3ccccc23)cc1
inactive

For this molecule, state the assay outcome: CCOC(=O)C1(C(C)=O)CC(C(=O)c2ccccc2)C(c2ccccc2)C(C(=O)c2ccccc2)C1 (stereo not given)
inactive

For this molecule, state the assay outcome: O=c1[nH]c(=O)n(CCc2ccccc2)c2nccc(-c3ccc(Cl)cc3)c12
inactive

For this molecule, state the assay outcome: CC(NC(=O)C(=O)Nc1cc(Cl)ccc1Cl)c1ccccc1 (stereo not given)
inactive

For this molecule, state the assay outcome: O=C(c1ccn(COc2ccccc2)n1)N1CCN(Cc2ccc(Cl)c(Cl)c2)CC1
inactive

For this molecule, state the assay outcome: Cc1ccc(-c2noc(-c3occc3Br)n2)cc1
inactive

For this molecule, state the assay outcome: O=C(NC12CC3CC(CC(C3)C1)C2)C1CCCO1 (stereo not given)
inactive

For this molecule, state the assay outcome: O=C(NCc1cccnc1)C(F)(F)C(F)(F)C(F)(F)F
inactive

For this molecule, state the assay outcome: C=CCn1c(-n2nc(C)cc2C)nc2c1c(=O)n(CCOCC)c(=O)n2C
inactive

For this molecule, state the assay outcome: CC1CCN(C(=O)c2cccnc2-c2nc3ccccc3s2)CC1
inactive

For this molecule, state the assay outcome: Cc1oc(C)c(C(=O)Nc2ccccc2O)c1C
inactive

For this molecule, state the assay outcome: Cc1cc(O)c2c(C)c(CC(=O)Nc3nc4ccccc4[nH]3)c(=O)oc2c1
inactive

For this molecule, state the assay outcome: COc1ccc(C2CC(=O)Nc3c2c(=O)nc2c(C)cccn32)cc1OC (stereo not given)
inactive

For this molecule, state the assay outcome: COc1ccc(C=O)cc1OCc1c(F)cccc1Cl
inactive

For this molecule, state the assay outcome: Cc1cc(C)c2c(c1)/C(=N/Nc1nc3ccccc3[nH]1)CCC2
active

For this molecule, state the assay outcome: CC1CCCCN1C(=O)CSc1nc2ccccc2n1CCC#N (stereo not given)
inactive

For this molecule, state the assay outcome: FC(F)(F)c1cnc(Sc2nnc(C3CC3)n2-c2ccccc2)c(Cl)c1
inactive

For this molecule, state the assay outcome: COc1ccc(-c2nc(CSCC(=O)NC3CCCCCC3)c(C)o2)cc1OC
active

For this molecule, state the assay outcome: CCCOc1ccc(NC(=O)COc2cccc(C)c2C)c2cccnc12
inactive

For this molecule, state the assay outcome: COc1ccccc1Oc1coc2cc(OCc3ccc(Cl)cc3)ccc2c1=O
inactive

For this molecule, state the assay outcome: NC(=O)Cn1nc(-c2cccc([N+](=O)[O-])c2)c2ccccc2c1=O
inactive

For this molecule, state the assay outcome: [O-]/[N+](=C\c1ccc2ccccc2n1)c1ccccc1
inactive
